This collection of values is drawn from patent US5191079A.

Reported MIC values are given for each entry in this list.
- Test system: Streptococcus pneumoniae IID 554
- assay.procedure: MIC, Experiment 1
- Type: cell-based
- settings: IID554, S. pneumoniae IID 554, Gram +, agar with 5% defibrinated horse blood, read-out: Min. inhib. concentr. (MIC)
Structures can show the parent of a compound that is named as a salt.
observed.property: MIC (µg/mL)

molecule: CN1Cc2csc3c(C(=O)O)c(=O)c4cc(F)c(N5CCC(N(C)C)CC5)c1c4n23
measured.number: 0.05

molecule: CN1Cc2csc3c(C(=O)O)c(=O)c4cc(F)c(N5CCN(C)C(CF)C5)c1c4n23 (stereo not drawn) [Compound (K), hydrochloride]
measured.number: 0.1

molecule: CN1Cc2csc3c(C(=O)O)c(=O)c4cc(F)c(N5CCO[C@@H](CO)C5)c1c4n23
measured.number: 0.05

molecule: CN1Cc2csc3c(C(=O)O)c(=O)c4cc(F)c(N5CCN6CCOC[C@H]6C5)c1c4n23
measured.number: 0.05

molecule: COCC1CN(c2c(F)cc3c(=O)c(C(=O)O)c4scc5n4c3c2N(C)C5)CCO1 (stereo not drawn) [Compound (E)]
measured.number: 0.05

molecule: CN1Cc2csc3c(C(=O)O)c(=O)c4cc(F)c(N5CCOC(CF)C5)c1c4n23 (stereo not drawn)
measured.number: 0.05

molecule: COC[C@@H]1CN(c2c(F)cc3c(=O)c(C(=O)O)c4scc5n4c3c2N(C)C5)CCO1
measured.number: 0.05

molecule: CN1Cc2csc3c(C(=O)O)c(=O)c4cc(F)c(N5CCOC(CCl)C5)c1c4n23 (stereo not drawn)
measured.number: 0.05

molecule: COCC1CN(c2c(F)cc3c(=O)c(C(=O)O)c4scc5n4c3c2N(C)C5)CCN1C (stereo not drawn) [Compound (J), hydrochloride]
measured.number: 0.1

molecule: CN1Cc2csc3c(C(=O)O)c(=O)c4cc(F)c(N5CCOC(CO)C5)c1c4n23 (stereo not drawn)
measured.number: 0.05

molecule: CN1Cc2csc3c(C(=O)O)c(=O)c4cc(F)c(N5CCN(C)C(CO)C5)c1c4n23 (stereo not drawn) [Compound (I), hydrochloride]
measured.number: 0.05

molecule: CN1CCN(c2c(F)cc3c(=O)c(C(=O)O)c4scc5n4c3c2OC5)CC1 [Compound (Y), hydrochloride, reference compound]
measured.number: 0.2

molecule: CCOCC1CN(c2c(F)cc3c(=O)c(C(=O)O)c4scc5n4c3c2N(C)C5)CCO1 (stereo not drawn)
measured.number: 0.39

molecule: CN1Cc2csc3c(C(=O)O)c(=O)c4cc(F)c(N5CCC(=O)CC5)c1c4n23
measured.number: 0.025

molecule: COC[C@H]1CN(c2c(F)cc3c(=O)c(C(=O)O)c4scc5n4c3c2N(C)C5)CCO1
measured.number: 0.1

----------
- System: clinically isolated Staphylococcus epidermidis
- assay.procedure: In vitro antibacterial activity against clinical isolates, Experiment 2
- Assay type: cell-based
- settings: Staphylococcus epidermidis; 25 clinical strains S. epidermidis
Counter-ions that a name gives are not always drawn.
Listing of entries alongside the reported MIC.
observed.property: MIC

molecule: CC1COc2c(N3CCN(C)CC3)c(F)cc3c(=O)c(C(=O)O)cn1c23 (stereo not drawn) [Compound (X), reference compound]
result: 0.2 to 50 µg/mL
--
molecule: CN1Cc2csc3c(C(=O)O)c(=O)c4cc(F)c(N5CCOC(CCl)C5)c1c4n23 (stereo not drawn)
result: 0.006 to 0.39 µg/mL
--
molecule: CN1Cc2csc3c(C(=O)O)c(=O)c4cc(F)c(N5CCC(=O)CC5)c1c4n23
result: 0.006 to 0.2 µg/mL
--
molecule: CN1Cc2csc3c(C(=O)O)c(=O)c4cc(F)c(N5CCOC(CO)C5)c1c4n23 (stereo not drawn)
result: 0.006 to 0.78 µg/mL
--
molecule: CN1Cc2csc3c(C(=O)O)c(=O)c4cc(F)c(N5CCC(O)CC5)c1c4n23
result: 0.006 to 0.39 µg/mL
--
molecule: COC[C@H]1CN(c2c(F)cc3c(=O)c(C(=O)O)c4scc5n4c3c2N(C)C5)CCO1
result: 0.006 to 0.78 µg/mL
--
molecule: COCC1CN(c2c(F)cc3c(=O)c(C(=O)O)c4scc5n4c3c2N(C)C5)CCO1 (stereo not drawn) [Compound (E)]
result: 0.006 to 0.39 µg/mL
--
molecule: CN1Cc2csc3c(C(=O)O)c(=O)c4cc(F)c(N5CCN6CCOC[C@H]6C5)c1c4n23
result: 0.013 to 1.56 µg/mL
--
molecule: CC1CN(c2c(F)cc3c(=O)c(C(=O)O)c4scc5n4c3c2N(C)C5)CCO1 (stereo not drawn)
result: 0.006 to 0.39 µg/mL
--
molecule: CN1Cc2csc3c(C(=O)O)c(=O)c4cc(F)c(N5CCN(C)C(CF)C5)c1c4n23 (stereo not drawn) [Compound (K), hydrochloride]
result: 0.05 to 1.56 µg/mL
--
molecule: CN1Cc2csc3c(C(=O)O)c(=O)c4cc(F)c(N5CCO[C@H](CO)C5)c1c4n23
result: 0.006 to 0.78 µg/mL
--
molecule: COC[C@@H]1CN(c2c(F)cc3c(=O)c(C(=O)O)c4scc5n4c3c2N(C)C5)CCO1
result: 0.006 to 0.78 µg/mL
--
molecule: CN1Cc2csc3c(C(=O)O)c(=O)c4cc(F)c(N5CCC(N(C)C)CC5)c1c4n23
result: 0.05 to 3.13 µg/mL
--
molecule: CN1Cc2csc3c(C(=O)O)c(=O)c4cc(F)c(N5CCN(C)C(CO)C5)c1c4n23 (stereo not drawn) [Compound (I), hydrochloride]
result: 0.05 to 3.13 µg/mL
--
molecule: CN1Cc2csc3c(C(=O)O)c(=O)c4cc(F)c(N5CCOC(CF)C5)c1c4n23 (stereo not drawn)
result: 0.006 to 0.39 µg/mL
--
molecule: CN1Cc2csc3c(C(=O)O)c(=O)c4cc(F)c(N5CCO[C@@H](CO)C5)c1c4n23
result: 0.006 to 0.78 µg/mL
--
molecule: CCOCC1CN(c2c(F)cc3c(=O)c(C(=O)O)c4scc5n4c3c2N(C)C5)CCO1 (stereo not drawn)
result: 0.006 to 0.78 µg/mL
--
molecule: COCC1CN(c2c(F)cc3c(=O)c(C(=O)O)c4scc5n4c3c2N(C)C5)CCN1C (stereo not drawn) [Compound (J), hydrochloride]
result: 0.05 to 6.25 µg/mL
